Test system: OVCAR-4 ovarian
Experiment: NCI-60 one-dose screen, 48 h
Conditions: 10 µM unless noted
The panel holds about 83,000 compounds, 20% with a hit somewhere; the sample as a whole holds those more often. Active and inactive are the calls of the source. How the source made its calls: active means growth percent below 10; inactive means the rest.
Lab note: assign the record to one of y (active), n (inactive)

Example results:
>>> answer_label("Cc1ccc(C(=O)c2ccc(CC(=O)N=Nc3c(O)[nH]c4ccc(Br)cc34)n2C)cc1")
"n"
>>> answer_label("CCCCNC(=O)Oc1ccc(/C(=C(/C)Cc2ccc(OC)cc2)c2ccc(OCCN3CCCCCC3)cc2)cc1")
"n"
>>> answer_label("CCSc1oc(C)nc1[P+](c1ccccc1)(c1ccccc1)c1ccccc1")
"n"
>>> answer_label("COc1cc(C(=O)c2c(-c3ccccc3)oc3c(OC)cccc23)cc(OC)c1OC")
"n"
>>> answer_label("COC1=C(C)C(=O)N2[C@@H]1[C@H](c1ccccc1)OC21C=CC(=O)C=C1")
"n"

Give the logged outcome of this assay for the following molecule: Cc1ccc(/C=C/C(=O)c2cccc(OCCCOc3cccc(C(=O)/C=C/c4ccc(C)cc4)c3)c2)cc1 n

Similarly, O=C(CCCCCNC(=O)c1cc(=O)c(O)co1)Nc1ccccc1 ? n

Next up: COc1ccc(-c2ccc(-c3ccc(C(=N)N)nc3)s2)cc1Cl y

One more molecule: CCN(CC)Cc1cc(Nc2ccnc3cc(Cl)ccc23)ccc1O n

Also Cc1ccc(C=C2C(=O)NC(=O)NC2=O)cc1 ? n

Entry source: PubChem BioAssay (NCI)
